- Test system: Staphylococcus aureus
- testName: Antimicrobial activity against Staphylococcus aureus RN4220 by CLSI M31-A3 method
- Assay type: functional
Listing of entries alongside the reported MIC.

Example cases with answers are listed next.
molecule: COc1cc(Cc2cnc(N)nc2N)cc(OC)c1OC [TRIMETHOPRIM]
result: 0.5 µg/mL
--
molecule: NC[C@@H]1O[C@H](O[C@H]2[C@@H](O)[C@H](O[C@@H]3[C@@H](O)[C@H](N)C[C@H](N)[C@H]3O[C@H]3O[C@H](CN)[C@@H](O)[C@H](O)[C@H]3N)O[C@@H]2CO)[C@H](N)[C@@H](O)[C@@H]1O [FRAMYCETIN]
result: ≤ 1 µg/mL
--
molecule: NC[C@H]1O[C@H](O[C@H]2[C@H](O)[C@@H](O[C@H]3O[C@H](CO)[C@@H](O)[C@H](N)[C@H]3O)[C@H](N)C[C@@H]2N)[C@H](O)[C@@H](O)[C@@H]1O [KANAMYCIN]
result: 4 µg/mL
--
molecule: CN[C@@H]1[C@@H](O[C@H]2O[C@H](CO)[C@@H](N)[C@H](O)[C@H]2O)OC2C[C@@H](N)[C@@H](O[C@H]3[C@H](O)[C@@H](O)[C@H](N)C[C@@H]3N)OC2[C@@H]1O (stereo not given in full) [APRAMYCIN]
result: 1 µg/mL

Please find the next molecule below.
Dear colleague, I am looking for the recorded MIC of the following molecule: CN(C)[C@@H]1C(O)=C(C(N)=O)C(=O)[C@@]2(O)C(O)=C3C(=O)c4c(O)cccc4[C@@](C)(O)[C@H]3C[C@@H]12 [TETRACYCLINE]
0.12 µg/mL

====

- Tested on: Staphylococcus aureus
- testName: Antimicrobial activity against Staphylococcus aureus RN4220 by CLSI M31-A3 method
- Assay type: functional
reportedProperty: MIC (µg/mL)
Report the value in µg/mL with no unit label.

molecule: CC[C@H]1OC(=O)[C@H](C)[C@@H](O[C@H]2C[C@@](C)(OC)[C@@H](O)[C@H](C)O2)[C@H](C)[C@@H](O[C@@H]2O[C@H](C)C[C@H](N(C)C)[C@H]2O)[C@](C)(O)C[C@@H](C)C(=O)[C@H](C)[C@@H](O)[C@]1(C)O [ERYTHROMYCIN]
MIC / µg/mL: 0.12

Please find the next molecule below.
Dear colleague, I am looking for the recorded MIC of the following molecule: Cc1onc(-c2ccccc2)c1C(=O)N[C@@H]1C(=O)N2[C@@H]1SC(C)(C)[C@@H]2C(=O)O [OXACILLIN]
0.12
